Hello, the source for this data is patent US8822640B2, in case you need it.

Assay: BIAcore biosensor kinetic parameters of biotin binding in streptavidin muteins
Conditions: BIAcore, biotinylated IgG on chip, mutein injected; listed as ΔW-HC; read-out: Kd (biotin binding affinity)
endpoint: Kd (nM)
I only need the number, in nM, no unit after it.

Exercise: Requested field: Kd. Item: ΔWHC: streptavidin mutein with Trp-120 deleted (loop T T E A N A K) and H127C mutation (SEQ ID NO: 13) (TTEANAK; listed as Bacillus subtilis)
Key: 8.1
